Target: BRG1 AT-BD P1456L (human, UniProt P51532 1434-1569, P1456L)
Sequence (P51532 1434-1569 P1456L): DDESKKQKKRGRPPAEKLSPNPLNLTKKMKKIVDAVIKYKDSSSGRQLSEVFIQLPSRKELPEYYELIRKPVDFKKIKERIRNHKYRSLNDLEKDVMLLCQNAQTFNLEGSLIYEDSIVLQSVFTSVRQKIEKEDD
Test name: BLI
Outcome measure: pKd
On this scale, pKd is minus log10 of a concentration expressed in M (mol/L).

Give the measured pKd of biotinylated SELEX-DNA (dsDNA) DNA 1: CCTCAATTAAATCTC DNA 2: GAGATTTAATTGAGG .
5.92
